These entries and their values trace back to patent US6429312B2.

Target: D2 receptors (Chlorocebus aethiops)
Construct: expressed in transfected cells; host or cells: COS cells
Sequence (P52702 whole entry): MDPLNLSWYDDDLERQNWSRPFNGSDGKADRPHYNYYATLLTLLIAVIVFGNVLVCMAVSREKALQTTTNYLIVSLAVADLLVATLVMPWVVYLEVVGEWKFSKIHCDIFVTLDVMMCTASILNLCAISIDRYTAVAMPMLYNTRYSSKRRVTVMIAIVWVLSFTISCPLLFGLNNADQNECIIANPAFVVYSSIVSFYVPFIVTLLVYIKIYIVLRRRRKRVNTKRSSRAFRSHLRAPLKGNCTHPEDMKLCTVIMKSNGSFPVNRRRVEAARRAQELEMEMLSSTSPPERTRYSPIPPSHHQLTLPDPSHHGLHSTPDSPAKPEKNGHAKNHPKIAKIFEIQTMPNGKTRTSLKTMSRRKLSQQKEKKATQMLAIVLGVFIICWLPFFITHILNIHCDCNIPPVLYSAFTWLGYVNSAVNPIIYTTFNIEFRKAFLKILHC
Assay: D2 receptor binding assay (3H-YM 09151-2 displacement)
Design: species or system African Green monkey
Description: ASSAY FOR D2 AND D3 RECEPTOR BINDING ACTIVITY Pellets of COS cells containing recombinantly produced D2 or D3 receptors from African Green monkey were used for the assays. The sample is homogenized in 100 volumes (w/vol) of 0.05 M Tris HCl buffer at 4° C. and pH 7.4. The sample is then centrifuged at 30,000×g and resuspended and rehomogenized. The sample is then centrifuged as described and the final tissue sample is frozen until use. […]
Where a name gives a salt, the structure may show the parent alone.
quantity: Ki (µM)
# output: bare number, implied unit µM

Q. Return value of Ki for input O=C(NCCCCN1CCN(c2cccc(Cl)c2Cl)CC1)c1ccc2sc3ccccc3c2c1 [Compound 1, hydrochloride] , no commentary.
A. 0.285

* * *

Biological target: D2 receptors (Chlorocebus aethiops)
Construct: expressed in transfected cells; host or cells: COS cells
Assay: D2 receptor binding assay (3H-YM 09151-2 displacement)
Parameters: species or system African Green monkey
Conditions: COS cells containing recombinantly produced D2 receptors; 0.5 nM 3H-YM 09151-2; nonspecific binding with 1 mM spiperone; read-out: D2 Ki
Where a name gives a salt, the structure may show the parent alone.
quantity: pKi
The scale used: pKi is minus the common logarithm of the concentration in molar units.

Q. Return value of pKi for input O=C(NCCCCN1CCN(c2cccc3ccccc23)CC1)c1ccc2sc3ccccc3c2c1 [Compound 2, hydrochloride] , no commentary.
A. 6.62
